For each record, write down the corresponding inhibition.
# TARGET DESC: Glucose transporter (Leishmania mexicana) (UniProt O61059)
# EXPERIMENTAL PROTOCOL: ST_JUDE_LEISH: Cytotoxicity at 2uM final concentration against transgenic Leishmania Mexicana promastigotes LmGT2 that are glucose transport deficient and complemented with the L. Mexicana glucose transporter 2. Activity is measured by DNA content using SYBR green in vitro
# Format: functional
Lab book: enter the figure in %, no units written.

Exam item: # query: inhibition | item `CCc1cccc(NC(=O)c2ccc(CN3CCCN(CC4CCCCC4)CC3)cc2)c1` | system: Glucose transporter (Leishmania mexicana) (UniProt O61059)
Marked response: 13.4

Exam item: Record lookup: for Glucose transporter (Leishmania mexicana) (UniProt O61059), what inhibition belongs to `c1ccc2[nH]c(-c3ccc(-c4ccc(CN5CCCCC5)cc4)s3)nc2c1` ?
Marked response: -0.34

Exam item: Test system Glucose transporter (Leishmania mexicana) (UniProt O61059); read-out inhibition; what value for `O=C(NCc1cccc(C(F)(F)F)c1)[C@@H]1CCCN1C(=O)c1ccc(O)c(-c2ccc(Cl)c(Cl)c2)c1` ?
Marked response: 0.24

Exam item: Enter reported inhibition observed with Glucose transporter (Leishmania mexicana) (UniProt O61059) for `CS(=O)(=O)c1ccc(CNCc2ccc(-c3ccc(-c4nc5cc(C(F)(F)F)ccc5[nH]4)s3)cc2)cc1`
Marked response: 9.87

Exam item: Form field - read-out: inhibition; system: Glucose transporter (Leishmania mexicana) (UniProt O61059); submitted item: `O=C(NCCc1cccc(Cl)c1Cl)c1cnc(N2CCN(c3ccncc3)CC2)c(Cl)c1`
Marked response: 83.9
